Assay conditions: in MIBK, 288.15 K
Measured property: solubility (mole fraction)
One number for each entry.

Which measured solubility (mole fraction) value corresponds to O=C(O)/C=C/C(=O)O.OCCOCCN1CCN(C2=Nc3ccccc3Sc3ccccc32)CC1.OCCOCCN1CCN(C2=Nc3ccccc3Sc3ccccc32)CC1 ?
0.000153

* * *

Assay conditions: in n-heptane, 308.15 K
Measured property: solubility (mole fraction)
Answers are plain numbers.

For the molecule O=C(O)/C=C/C(=O)O.OCCOCCN1CCN(C2=Nc3ccccc3Sc3ccccc32)CC1.OCCOCCN1CCN(C2=Nc3ccccc3Sc3ccccc32)CC1 , what solubility (mole fraction) is on record?
4.57e-05

* * *

Assay conditions: in 2-butanone, 298.15 K
Measured property: solubility (mole fraction)
Numbers only.

Reported solubility (mole fraction) for O=C(O)/C=C/C(=O)O.OCCOCCN1CCN(C2=Nc3ccccc3Sc3ccccc32)CC1.OCCOCCN1CCN(C2=Nc3ccccc3Sc3ccccc32)CC1 : what is it?
0.000251

* * *

Assay conditions: in 2-butanone, 293.15 K
Measured property: solubility (mole fraction)
Numbers only.

Sample O=C(O)/C=C/C(=O)O.OCCOCCN1CCN(C2=Nc3ccccc3Sc3ccccc32)CC1.OCCOCCN1CCN(C2=Nc3ccccc3Sc3ccccc32)CC1 — what was its solubility (mole fraction)?
0.000204

* * *

Assay conditions: in n-hexane, 323.15 K
Measured property: solubility (mole fraction)

Item under review: O=C(O)/C=C/C(=O)O.OCCOCCN1CCN(C2=Nc3ccccc3Sc3ccccc32)CC1.OCCOCCN1CCN(C2=Nc3ccccc3Sc3ccccc32)CC1 . Reported solubility (mole fraction)?
8.16e-05

* * *

Assay conditions: in n-propanol, 318.15 K
Measured property: solubility (mole fraction)
Give bare numbers.

Fill in the blank: the reported solubility (mole fraction) of O=C(O)/C=C/C(=O)O.OCCOCCN1CCN(C2=Nc3ccccc3Sc3ccccc32)CC1.OCCOCCN1CCN(C2=Nc3ccccc3Sc3ccccc32)CC1 is ____.
0.00126

* * *

Assay conditions: in THF, 313.15 K
Measured property: solubility (mole fraction)
Answers are plain numbers.

If you can, please state the reported solubility (mole fraction) value of O=C(O)/C=C/C(=O)O.OCCOCCN1CCN(C2=Nc3ccccc3Sc3ccccc32)CC1.OCCOCCN1CCN(C2=Nc3ccccc3Sc3ccccc32)CC1 .
0.00261

* * *

Assay conditions: in n-hexane, 283.15 K
Measured property: solubility (mole fraction)
Answers are plain numbers.

Would you mind telling me what solubility (mole fraction) value was observed for O=C(O)/C=C/C(=O)O.OCCOCCN1CCN(C2=Nc3ccccc3Sc3ccccc32)CC1.OCCOCCN1CCN(C2=Nc3ccccc3Sc3ccccc32)CC1 ?
1.46e-05

* * *

Assay conditions: in n-heptane, 318.15 K
Measured property: solubility (mole fraction)
Numbers only.

Please give the measured solubility (mole fraction) for this molecule: O=C(O)/C=C/C(=O)O.OCCOCCN1CCN(C2=Nc3ccccc3Sc3ccccc32)CC1.OCCOCCN1CCN(C2=Nc3ccccc3Sc3ccccc32)CC1
6.96e-05

* * *

Assay conditions: in MTBE, 293.15 K
Measured property: solubility (mole fraction)
Numbers only.

Endpoint output: solubility (mole fraction) of O=C(O)/C=C/C(=O)O.OCCOCCN1CCN(C2=Nc3ccccc3Sc3ccccc32)CC1.OCCOCCN1CCN(C2=Nc3ccccc3Sc3ccccc32)CC1 . Value?
6.74e-05

* * *

Assay conditions: in isopropyl acetate, 308.15 K
Measured property: solubility (mole fraction)
Answers are plain numbers.

Could you share which solubility (mole fraction) value was measured for O=C(O)/C=C/C(=O)O.OCCOCCN1CCN(C2=Nc3ccccc3Sc3ccccc32)CC1.OCCOCCN1CCN(C2=Nc3ccccc3Sc3ccccc32)CC1 ?
0.000104

* * *

Assay conditions: in dichloromethane, 298.15 K
Measured property: solubility (mole fraction)
Answers are plain numbers.

Dear colleague, I am looking for the recorded solubility (mole fraction) of the following compound: O=C(O)/C=C/C(=O)O.OCCOCCN1CCN(C2=Nc3ccccc3Sc3ccccc32)CC1.OCCOCCN1CCN(C2=Nc3ccccc3Sc3ccccc32)CC1
0.000365

* * *

Assay conditions: in ethyl formate, 293.15 K
Measured property: solubility (mole fraction)
Numbers only.

solubility (mole fraction) for O=C(O)/C=C/C(=O)O.OCCOCCN1CCN(C2=Nc3ccccc3Sc3ccccc32)CC1.OCCOCCN1CCN(C2=Nc3ccccc3Sc3ccccc32)CC1 ?
0.000125

* * *

Assay conditions: in THF, 308.15 K
Measured property: solubility (mole fraction)
Numbers only.

What does the data say about its solubility (mole fraction)? Entry: O=C(O)/C=C/C(=O)O.OCCOCCN1CCN(C2=Nc3ccccc3Sc3ccccc32)CC1.OCCOCCN1CCN(C2=Nc3ccccc3Sc3ccccc32)CC1
0.00208

* * *

Assay conditions: in n-hexane, 303.15 K
Measured property: solubility (mole fraction)

Query: solubility (mole fraction); subject: O=C(O)/C=C/C(=O)O.OCCOCCN1CCN(C2=Nc3ccccc3Sc3ccccc32)CC1.OCCOCCN1CCN(C2=Nc3ccccc3Sc3ccccc32)CC1
3.3e-05

* * *

Assay conditions: in n-heptane, 298.15 K
Measured property: solubility (mole fraction)
Numbers only.

Item O=C(O)/C=C/C(=O)O.OCCOCCN1CCN(C2=Nc3ccccc3Sc3ccccc32)CC1.OCCOCCN1CCN(C2=Nc3ccccc3Sc3ccccc32)CC1 has what recorded solubility (mole fraction)?
3.02e-05

* * *

Assay conditions: in toluene, 283.15 K
Measured property: solubility (mole fraction)
Answers are plain numbers.

Record request: solubility (mole fraction) value, item O=C(O)/C=C/C(=O)O.OCCOCCN1CCN(C2=Nc3ccccc3Sc3ccccc32)CC1.OCCOCCN1CCN(C2=Nc3ccccc3Sc3ccccc32)CC1
3.01e-05

* * *

Assay conditions: in MTBE, 288.15 K
Measured property: solubility (mole fraction)
Answers are plain numbers.

Quick one: solubility (mole fraction) for O=C(O)/C=C/C(=O)O.OCCOCCN1CCN(C2=Nc3ccccc3Sc3ccccc32)CC1.OCCOCCN1CCN(C2=Nc3ccccc3Sc3ccccc32)CC1 ?
5.55e-05

* * *

Assay conditions: in toluene, 313.15 K
Measured property: solubility (mole fraction)
Answers are plain numbers.

// query solubility (mole fraction) value for entry O=C(O)/C=C/C(=O)O.OCCOCCN1CCN(C2=Nc3ccccc3Sc3ccccc32)CC1.OCCOCCN1CCN(C2=Nc3ccccc3Sc3ccccc32)CC1
8.5e-05

* * *

Assay conditions: in MIBK, 303.15 K
Measured property: solubility (mole fraction)
Give bare numbers.

So what's the measured solubility (mole fraction) for this one? O=C(O)/C=C/C(=O)O.OCCOCCN1CCN(C2=Nc3ccccc3Sc3ccccc32)CC1.OCCOCCN1CCN(C2=Nc3ccccc3Sc3ccccc32)CC1
0.000273

* * *

Assay conditions: in n-hexane, 318.15 K
Measured property: solubility (mole fraction)

Given the compound O=C(O)/C=C/C(=O)O.OCCOCCN1CCN(C2=Nc3ccccc3Sc3ccccc32)CC1.OCCOCCN1CCN(C2=Nc3ccccc3Sc3ccccc32)CC1 , what is its reported solubility (mole fraction)?
6.53e-05

* * *

Assay conditions: in 2-butanone, 318.15 K
Measured property: solubility (mole fraction)
One number for each entry.

State the recorded solubility (mole fraction) for this entry: O=C(O)/C=C/C(=O)O.OCCOCCN1CCN(C2=Nc3ccccc3Sc3ccccc32)CC1.OCCOCCN1CCN(C2=Nc3ccccc3Sc3ccccc32)CC1
0.000581

* * *

Assay conditions: in 2-butanone, 323.15 K
Measured property: solubility (mole fraction)
Answers are plain numbers.

solubility (mole fraction) lookup needed for O=C(O)/C=C/C(=O)O.OCCOCCN1CCN(C2=Nc3ccccc3Sc3ccccc32)CC1.OCCOCCN1CCN(C2=Nc3ccccc3Sc3ccccc32)CC1 , thanks.
0.000721

* * *

Assay conditions: in MIBK, 293.15 K
Measured property: solubility (mole fraction)
One number for each entry.

Return reported solubility (mole fraction); argument: O=C(O)/C=C/C(=O)O.OCCOCCN1CCN(C2=Nc3ccccc3Sc3ccccc32)CC1.OCCOCCN1CCN(C2=Nc3ccccc3Sc3ccccc32)CC1
0.000181

* * *

Assay conditions: in isopropyl acetate, 288.15 K
Measured property: solubility (mole fraction)

Fill in the blank: the reported solubility (mole fraction) of O=C(O)/C=C/C(=O)O.OCCOCCN1CCN(C2=Nc3ccccc3Sc3ccccc32)CC1.OCCOCCN1CCN(C2=Nc3ccccc3Sc3ccccc32)CC1 is ____.
4.7e-05

* * *

Assay conditions: in dichloromethane, 303.15 K
Measured property: solubility (mole fraction)
Give bare numbers.

Which solubility (mole fraction) is listed for O=C(O)/C=C/C(=O)O.OCCOCCN1CCN(C2=Nc3ccccc3Sc3ccccc32)CC1.OCCOCCN1CCN(C2=Nc3ccccc3Sc3ccccc32)CC1 ?
0.00046

* * *

Assay conditions: in THF, 303.15 K
Measured property: solubility (mole fraction)

# lookup: solubility (mole fraction) of O=C(O)/C=C/C(=O)O.OCCOCCN1CCN(C2=Nc3ccccc3Sc3ccccc32)CC1.OCCOCCN1CCN(C2=Nc3ccccc3Sc3ccccc32)CC1
0.00167

* * *

Assay conditions: in MIBK, 313.15 K
Measured property: solubility (mole fraction)
One number for each entry.

Look up solubility (mole fraction) for this molecule: O=C(O)/C=C/C(=O)O.OCCOCCN1CCN(C2=Nc3ccccc3Sc3ccccc32)CC1.OCCOCCN1CCN(C2=Nc3ccccc3Sc3ccccc32)CC1
0.000398
